Each record here notes measured growth at 50 µM.
# Test system: MCF7
# Test Protocol: Cytotoxicity against human MCF7 cells assessed as cell growth at 50 uM measured at 72 hrs by CyQuant proliferation assay relative to control
# Format: functional
# Experimental Context: MCF7, 72 h, read-out: Activity
Express your answer in %, writing the number without its unit.

The examples below pair each entry with its known result.
INSERT INTO assay_data (compound, measured_attribute, test_result) VALUES
  ('COC1=C(Br)[C@@H](O)[C@]2(C=C1Br)CC(C(=O)NCCCOc1c(Br)cc(CCNC(=N)N)cc1Br)=NO2', 'growth at 50 µM', 24),
  ('COc1c(Br)cc(C/C(=N\O)C(=O)NCCc2cc(Br)c(OCCCN)c(Br)c2)cc1Br', 'growth at 50 µM', 26),
  ('CNCCCOc1c(Br)cc(CCNC(=O)/C(Cc2ccc(O)c(Br)c2)=N/O)cc1Br', 'growth at 50 µM', 69),
  ('CCCCC(C)CCC/C=C\CCCCCCC(=O)NCCc1cc(Br)c(OCCCNC(=O)C2=NO[C@@]3(C=C(Br)C(OC)=C(Br)[C@H]3O)C2)c(Br)c1 (stereo partly specified)', 'growth at 50 µM', 104),
  ('COC1=C(Br)[C@@H](O)[C@]2(C=C1Br)CC(C(=O)NCCCOc1c(Br)cc(CCNC(=O)CCCCCCCCCCCC(C)C)cc1Br)=NO2', 'growth at 50 µM', 64),
  ('COC1=C(Br)[C@@H](O)[C@]2(C=C1Br)CC(C(=O)NCCCOc1c(Br)cc(C(=O)O)cc1Br)=NO2', 'growth at 50 µM', 60);

For record CCCCCCC(C)CCCCCCCC(=O)NCCc1cc(Br)c(OCCCNC(=O)C2=NO[C@@]3(C=C(Br)C(OC)=C(Br)[C@H]3O)C2)c(Br)c1 (stereo partly specified) the listed growth at 50 µM is 101

For record `COC1=C(Br)[C@@H](O)[C@]2(C=C1Br)CC(C(=O)NCCCOc1c(Br)cc(CCN)cc1Br)=NO2` the listed growth at 50 µM is 71

For record CCCCCCC(C)CCCCCCCCC(=O)NCCc1cc(Br)c(OCCCNC(=O)C2=NO[C@@]3(C=C(Br)C(OC)=C(Br)[C@H]3O)C2)c(Br)c1 (stereo partly specified) the listed growth at 50 µM is 109

For record `CNCCCOc1c(Br)cc(CCNC(=O)/C(Cc2cc(Br)c(OC)c(Br)c2)=N/O)cc1Br` the listed growth at 50 µM is 58

For record `COc1c(Br)cc(C/C(=N\O)C(=O)NCCCOc2c(Br)cc(CCN)cc2Br)c(O)c1Br` the listed growth at 50 µM is 27

* * *

# Test Protocol: Cytotoxicity against mouse NIH/3T3 cells assessed as cell growth at 50 uM measured at 72 hrs by CyQuant proliferation assay relative to control
# Assay type: cell-based, NIH3T3
# Experimental Context: read-out: Activity
Each record here notes measured viability at 72 h, 50 µM.
Express your answer in %, writing the number without its unit.

The examples below pair each entry with its known result.
INSERT INTO results (compound, measured_attribute, measurement_unit, test_result) VALUES
  ('CNCCCOc1c(Br)cc(CCNC(=O)/C(Cc2cc(Br)c(OC)c(Br)c2)=N/O)cc1Br', 'viability at 72 h, 50 µM', '%', 3),
  ('CCCCCCC(C)CCCCCCCC(=O)NCCc1cc(Br)c(OCCCNC(=O)C2=NO[C@@]3(C=C(Br)C(OC)=C(Br)[C@H]3O)C2)c(Br)c1 (stereo partly specified)', 'viability at 72 h, 50 µM', '%', 95),
  ('CCCCCCC(C)CCCCCCCCC(=O)NCCc1cc(Br)c(OCCCNC(=O)C2=NO[C@@]3(C=C(Br)C(OC)=C(Br)[C@H]3O)C2)c(Br)c1 (stereo partly specified)', 'viability at 72 h, 50 µM', '%', 102),
  ('CNCCCOc1c(Br)cc(CCNC(=O)/C(Cc2ccc(O)c(Br)c2)=N/O)cc1Br', 'viability at 72 h, 50 µM', '%', 105),
  ('COC1=C(Br)[C@@H](O)[C@]2(C=C1Br)CC(C(=O)NCCCOc1c(Br)cc(CCN)cc1Br)=NO2', 'viability at 72 h, 50 µM', '%', 7);

For record `COC1=C(Br)[C@@H](O)[C@]2(C=C1Br)CC(C(=O)NCCCOc1c(Br)cc(CCNC(=O)CCCCCCCCCCCC(C)C)cc1Br)=NO2` the listed viability at 72 h, 50 µM is 95

For record `COc1c(Br)cc(C/C(=N\O)C(=O)NCCCOc2c(Br)cc(CCN)cc2Br)c(O)c1Br` the listed viability at 72 h, 50 µM is 104

For record `COc1c(Br)cc(C/C(=N\O)C(=O)NCCc2cc(Br)c(OCCCN)c(Br)c2)cc1Br` the listed viability at 72 h, 50 µM is 16

For record `COC1=C(Br)[C@@H](O)[C@]2(C=C1Br)CC(C(=O)NCCCOc1c(Br)cc(CCNC(=N)N)cc1Br)=NO2` the listed viability at 72 h, 50 µM is 25

For record `COC1=C(Br)[C@@H](O)[C@]2(C=C1Br)CC(C(=O)NCCCOc1c(Br)cc(C(=O)O)cc1Br)=NO2` the listed viability at 72 h, 50 µM is 29

For record CCCCC(C)CCC/C=C\CCCCCCC(=O)NCCc1cc(Br)c(OCCCNC(=O)C2=NO[C@@]3(C=C(Br)C(OC)=C(Br)[C@H]3O)C2)c(Br)c1 (stereo partly specified) the listed viability at 72 h, 50 µM is 98
